- protocolSummary: Metabolic stability in rat liver microsomes (in vitro t1/2)
- Assay type: in vitro ADME
- experimentalConditions: rat liver microsomes, 60 min
- Procedure: The following are assays that may be used to evaluate the metabolic stability of compounds of Formula (I) in human, rat, or mouse microsomes. The assays follow a common procedure recited below. 1. […] Peak areas were determined from extracted ion chromatograms. The slope value, k, was determined by linear regression of the natural logarithm of the remaining percentage of the parent drug vs. incubation time curve. […]
recordedMetric: Rat microsome % 60 min (%)
# value in %; strip the unit string

Record excerpt, results attached:
structurestring=CC(C)(C)COc1cccc(-c2cc(COC(C)(C)C(=O)O)nn2-c2ccccc2Cl)c1 recordedmeasurement=90
structurestring=CC(C)(C)COc1cccc(-c2cc(COC(C)(C)C(=O)O)nn2-c2ccccc2N2CCC2)c1 recordedmeasurement=70
structurestring=CCCn1ncc2ccc(-c3cc(COC(C)(C)C(=O)O)nn3-c3ccccc3N3CCC3)cc21 recordedmeasurement=69

Item under review: CC(C)(OCc1cc(-c2cccc(OC3CC3)c2)n(-c2ccc(F)cc2N2CCC2)n1)C(=O)O . Reported Rat microsome % 60 min?
71
